# Test system: Hs-578T
# method notes: NCI tumour cell line growth inhibition, 48 h
Active and inactive are the calls of the source. No stated cut-off is given here; in the data, active = GI50 up to about 1.1 µM and inactive = higher.
I would appreciate it if you answered using one of these outcomes: active, inactive

Here are 4 molecules together with their reported answers.
{"molecule": "CCC(=O)Nc1ccc(NCC(=O)Nc2ccc(Cl)cc2)cc1", "group label": "inactive"}
{"molecule": "CC(C)C[C@H](NC(=O)CCc1cccc2ccccc12)B(O)O", "group label": "active"}
{"molecule": "Nc1cccc(Nc2nc3ccccc3nc2NS(=O)(=O)c2ccccc2)c1", "group label": "inactive"}
{"molecule": "NCCCCNCCCN1CCOC1=O", "group label": "inactive"}

Problem: I would be grateful if you could indicate the recorded call for "COc1cc2c(OC)c(c1)CCCC1=CC(=O)C=C(CCC2)C1=O" .
Solution: inactive

Problem: Please state the recorded outcome for this molecule: "CN(C)CCCNc1ccc([N+](=O)[O-])c2nc3ccccc3c(N)c12"
Solution: inactive

---

# Tested on: UACC-257
# method notes: NCI tumour cell line growth inhibition, 48 h
Activity calls are given as the source filed them. No stated cut-off is given here; in the data, active = GI50 up to about 1.1 µM and inactive = higher.
The categories you may choose from are class 1 = active, class 0 = inactive

{"query smiles": "N#Cc1nc(-c2ccsc2)oc1N", "group label": "class 0"}
{"query smiles": "CC[n+]1c(/C=C/c2ccc(N(CCCl)CCCl)cc2)ccc2cc(Br)ccc21", "group label": "class 1"}
{"query smiles": "COc1ccc(OC)c([N+](=O)[O-])c1-c1nc2sc(C)cn2c1/C=N/N=C(N)N", "group label": "class 0"}

We next turn to a different compound, shown below.
Problem: Dear colleague, could you share the recorded outcome for "Cc1cc(Cl)ccc1NC(=O)C(=O)Cc1ccc([N+](=O)[O-])c([N+](=O)[O-])c1CC(=O)C(=O)Nc1ccc(Cl)cc1C" when you have a moment?
Solution: class 0

---

# Test system: SF-539
# method notes: NCI tumour cell line growth inhibition, 48 h
Active and inactive are the calls of the source. Rule as the data show it: active = GI50 up to about 1.1 µM and inactive = higher.
Thanks in advance; please answer with one of these: Yes (active), No (inactive)

The examples below pair each entry with its known result.
{"molecule": "C=C(CN)CO[Si](C)(C)C(C)(C)C", "group label": "No"}
{"molecule": "CC(NNC(=O)c1ccc[n+]([BH2-]C#N)c1)c1ccccc1 (stereo not given)", "group label": "No"}
{"molecule": "C=C1C(=O)OC2/C=C(/C)C(OC(C)=O)CC(O)/C(C)=C\\C(OC(=O)/C(C)=C\\C)C12 (stereo not given)", "group label": "No"}

Problem: What was the test verdict on "CCCC(=O)Nc1cc(C(=O)N2C[C@@H]3C[C@]34C2=CC(=O)c2[nH]cc(C)c24)n(COC)c1" ?
Solution: No

Problem: Query: recorded result category for "Cc1cc(N2CCOCC2)nc2ccc(Cc3ccc4nc(N5CCOCC5)cc(C)c4c3)cc12" in this test
Solution: No

Problem: Which outcome was assigned to CCOC(=O)C(Cc1ccccc1)NC(=O)c1ccc(/N=N/N(C)C)cc1 (stereo not given) in this test?
Solution: No

Problem: Outcome? "CCOC(=O)CC(=O)CSc1c(-c2ccccc2)c(=O)n(-c2ccccc2)c(=S)n1-c1ccccc1"
Solution: No

Problem: Which outcome was entered for the molecule CCCCCCCCCCCCC(=O)OC(c1cnco1)c1nc(C(O)CC(O)C(O)C(C)O)co1 (stereo not given) in this test?
Solution: Yes

Problem: In this assay, the call recorded for O=C1C(Cl)N(c2cccc(Cl)c2)C1c1c[nH]c2ccccc12 (stereo not given) was what?
Solution: No

Problem: Outcome logged for CC(=O)OCC1OC(OCCCCCCO)C(OC(C)=O)C(OC(C)=O)C1OC(C)=O (stereo not given) in this assay:
Solution: No

---

# Tested on: M14
# method notes: NCI tumour cell line growth inhibition, 48 h
The source made the active and inactive calls. Cut-off read from the data, not from the text of the source: active = GI50 up to about 1.1 µM and inactive = higher.
Listing: GI50 of selected compounds

Solved entries (count: 5):
{"compound": "CC(C)(C)CC(C)(C)NC(=S)NO", "observation type": "GI50", "result": "> 100 µM (inactive)"}
{"compound": "Cc1ccc(-c2cc(-c3ccco3)c(C#N)c(=S)[nH]2)cc1", "observation type": "GI50", "result": "63.8 µM (inactive)"}
{"compound": "O=C(Cn1c2ccc(Br)cc2c2nc3ccccc3nc21)NC1CCCCC1", "observation type": "GI50", "result": "> 100 µM (inactive)"}
{"compound": "CC(CCCC1SCC2NC(=O)NC21)C(=O)O (stereo unspecified)", "observation type": "GI50", "result": "> 100 µM (inactive)"}
{"compound": "Cc1ccc(S(=O)(=O)NCc2cccc([N+](=O)[O-])c2)cc1", "observation type": "GI50", "result": "> 100 µM (inactive)"}

Now look at this one.
Problem: Notebook: pull reported GI50 for M14, entry "O=c1[nH]nc(-c2ccc([N+](=O)[O-])cc2)[nH]1"
Solution: > 100 µM (inactive)

---

# Tested on: NCI-H460
# method notes: NCI tumour cell line growth inhibition, 48 h
Active and inactive are the calls of the source. Cut-off read from the data, not from the text of the source: active = GI50 up to about 1.1 µM and inactive = higher.
observation type: GI50

Problem: GI50 lookup needed for "CC(C)(C)/N=N/C(C)(C)N=C=O" , thanks.
Solution: > 100 µM (inactive)

Problem: Tell me the measured GI50 of COC(=O)C1=C(O)C(C(=O)OC)[C@@]2(O)[C@@H](C(=O)OC)C(c3ccc(OC(=O)/C(=C/c4ccc(Cl)cc4)c4ccc(Cl)cc4)cc3)C[C@@H]1[C@@H]2C(=O)OC (stereo partly drawn) , please.
Solution: 14.4 µM (inactive)

Problem: # lookup: GI50 of "Cc1cccc2nc3cccc(C(=O)NCCC[N+](C)(CCCNC(=O)c4cccc5nc6cccc(C)c6nc45)Cc4c([N+](=O)[O-])ncn4C)c3nc12"
Solution: 0.0632 µM (active)

Problem: What GI50 value was documented for this compound, CN1NC(c2ccccc2)=C(C#N)C(=O)CC1c1ccc(Br)cc1 (stereo not drawn) ?
Solution: 33.3 µM (inactive)

Problem: For "O=C(c1cccs1)c1nccc2c1cnc1ccccc12" , what is its reported GI50?
Solution: > 100 µM (inactive)

---

Here, each record is paired with measured GI50 data.
# System: SW-620
# method notes: NCI tumour cell line growth inhibition, 48 h
Active and inactive are the calls of the source. Rule as the data show it: active = GI50 up to about 1.1 µM and inactive = higher.

Problem: Reported GI50 for "COc1ccc2[nH]c3c(cnn4cnnc34)c2c1" : what is it?
Solution: > 100 µM (inactive)

Problem: # input compound: Cc1ccc(S(=O)OCC23CC4CC(CC(C4)C2)C3)cc1 (stereo unspecified) ; wanted: its GI50
Solution: > 100 µM (inactive)

Problem: Please give the measured GI50 for this compound: "Cc1cc(C)n(C(C)(C(=O)Cc2ccccc2)n2nc(C)cc2C)n1"
Solution: > 100 µM (inactive)

Problem: Any idea what its GI50 is? The compound is "CC1CC[P+](c2ccccc2)(c2ccccc2)CC1"
Solution: > 100 µM (inactive)

Problem: Need GI50, item "O=C(c1cccs1)c1nccc2c1cnc1ccccc12"
Solution: > 100 µM (inactive)

Problem: Which measured GI50 value corresponds to "CC(C)(C)CC(C)(C)NC(=S)NO" ?
Solution: > 100 µM (inactive)

Problem: Look at this compound and give its reported GI50. COC(=O)C1=CCC2c3[nH]c4ccccc4c3CCN2C1 (stereo unspecified)
Solution: > 354 µM (inactive)

Problem: Reported GI50, compound CCOC(=O)NNC(=O)C1CSC(c2ccccc2)N1C(C)=O (stereo unspecified) : ____
Solution: > 100 µM (inactive)

Problem: Item CC(C)(C)[Si](C)(C)OCC1OC(n2cnc3c(N)ncnc32)C(O[Si](C)(C)C(C)(C)C)C1O[Si](C)(C)C(C)(C)C (stereo unspecified) has what recorded GI50?
Solution: 10.8 µM (inactive)

Problem: Which GI50 value is on record for "COc1cc(S(=O)(=O)Nc2nc(-c3ccc(/N=C/c4ccccc4O)cc3)cs2)ccc1Cl" ?
Solution: 79.8 µM (inactive)

Problem: Fill in: GI50 of "Cc1ccc(NC(=O)CC(=O)n2nc(-c3ccccc3)c(/N=N/c3ccccc3Cl)c2-c2ccccc2)cc1" is ___
Solution: 92 µM (inactive)

---

Listing of recorded GI50 by entry.
# Tested on: SK-OV-3
# method notes: NCI tumour cell line growth inhibition, 48 h
Activity calls are given as the source filed them. No stated cut-off is given here; in the data, active = GI50 up to about 1.1 µM and inactive = higher.

{"compound": "CCC1(CC)C(=O)NN(C(=O)c2ccccc2)C1=O", "test system": "SK-OV-3", "GI50": "> 100 µM (inactive)"}
{"compound": "CCN(CC)CCCn1c(=O)c2ccccc2n2c3c(=O)n(C)c(=O)n(C)c3nc12", "test system": "SK-OV-3", "GI50": "3.37 µM (inactive)"}
{"compound": "Cc1ccccc1NC(=O)Cc1csc(N/N=C2\\NC(=O)/C(=C/c3cccc([N+](=O)[O-])c3)S2)n1", "test system": "SK-OV-3", "GI50": "53.1 µM (inactive)"}
{"compound": "COC(=O)C1=CN(C2CCCCC2)C2(c3ccccc3)c3ccccc3C(=O)OC(=O)C12 (stereo not given)", "test system": "SK-OV-3", "GI50": "> 100 µM (inactive)"}
{"compound": "COC(=O)C1=C(C(=O)OC)C2(C)CCC(=O)C1O2 (stereo not given)", "test system": "SK-OV-3", "GI50": "> 10 µM (inactive)"}

Next compound, GI50 to be filled in.
Problem: Look at this compound and give its reported GI50. "O=C(Nc1ccccc1[N+](=O)[O-])/C(=N/Nc1cccc(Cl)c1)c1c(O)c2ccccc2oc1=O"
Solution: > 100 µM (inactive)
